- Protocol text: Bi-directional permeability, CACO-2
- Type: in vitro ADME
- Test conditions: human, Caco-2, pH 7, Papp, A-to-B Rep. 2
Each entry below lists one item and its recorded Papp A→B at 2 h, 10 µM value.
Give a bare numeral; the unit ×10⁻⁶ cm/s is implied.

>  <Molecule>
CCC(N(NC(=O)c1cccc(C)c1C)C(=O)c1cc(C)cc(C)c1)C(C)(C)C (centres unmarked) [RG-103309]

>  <Units symbol>
×10⁻⁶ cm/s

>  <Papp A→B at 2 h, 10 µM>
23.8

$$$$

# input Recorded Papp A→B at 2 h, 10 µM for CCc1ccc(C(=O)NN(C(=O)c2cc(C)cc(C)c2)C(C)(C)C)c(F)c1 [RG-101523] , please?
# output 26.6

# input Recorded Papp A→B at 2 h, 10 µM for Cc1cc(C)cc(C(=O)N(NC(=O)c2ccc3c(c2C)OCCO3)C(C)(C)C)c1 [RG-102317] , please?
# output 27.3

# input Recorded Papp A→B at 2 h, 10 µM for COc1ccc(C(=O)N(NC(=O)c2ccc3c(c2C)OCCO3)C(C)(C)C)c(OC)n1 [RG-115517] , please?
# output 29.3

# input Recorded Papp A→B at 2 h, 10 µM for CCc1ccc(C(=O)NN(C(=O)c2cc(C)cc(C)c2)C(C)(C)C)cc1 [RG-102125] , please?
# output 26.3
